# Lookup of reported growth keyed by entry
Test system: K-562 leukemia
assay-comment: NCI-60 one-dose screen, 48 h (100 = growth as untreated, 0 = no growth, -100 = all killed)
settings: 10 µM
Compounds without any hit were thinned out: in the full panel of roughly 83,000, 20% have a hit.
observed-property: growth (%)

1. COc1ccc2nc(-c3ccc(Cl)cc3)cc(-c3nnc(SC/C(=N\O)c4ccccc4)n3-c3ccccc3)c2c1 ... 59
2. COc1nc2c(c(=O)n1C)CN(c1ccccc1)C(=O)C(C)N2 (centres undefined) ... 101
3. COC(=O)C1(O)NC(=C(C#N)C#N)C(C#N)=C1C(=O)c1ccc(OC)c(OC)c1 (centres undefined) ... 100
4. O=C1/C=C/[C@@H](O)[C@@H]2C[C@@H](O)C[C@H]2/C=C/CCC[C@H](CCc2ccc(NC(=S)Nc3ccc4c(c3)C(=O)OC43c4ccc(O)cc4Oc4cc(O)ccc43)cc2)O1 ... 13.5

----------
System: M14 melanoma
assay-comment: NCI-60 one-dose screen, 48 h (100 = growth as untreated, 0 = no growth, -100 = all killed)
settings: 10 µM
About 83,000 compounds went through this panel and 20% of them were active in at least one assay; those are over-represented in the sample as a whole.
Entries whose growth is below 40% take True; entries at or above 40% take False.

1) COc1cc(C2CC(c3ccccc3)=NN2C(C)=O)cc(OC)c1OC (stereo unspecified) ... True
2) Nc1ccc(-c2cccs2)cc1NC(=O)c1ccc(CCCC(=O)Nc2ccc(C3CC3N)cc2)cc1 (stereo unspecified) ... False
3) COc1cc(C(=O)N2CCN(c3cc4c(cc3F)c(=O)c(C(=O)NO)cn4C3CC3)CC2)cc(OC)c1OC ... False
4) CC(=O)OC/C=C(/C)C[P+](c1ccccc1)(c1ccccc1)c1ccccc1 ... False
5) C#CCOc1c(OC)cc(C(=O)/C(C)=C/c2cccc(N=[N+]=[N-])c2)cc1OC ... True
6) COc1cc2ncnc(NC3CCC(O)CC3)c2cc1OC (stereo unspecified) ... False
7) O=C(CCc1nnc2sc(-c3cc(O)c(O)c(O)c3)nn12)c1nc2ccccc2[nH]1 ... False
8) CNC(=O)c1cn(C2CC2)c2cc(N3CCN(C(=O)c4cc(OC)c(OC)c(OC)c4)CC3)c(F)cc2c1=O ... False
9) OC(CNc1ccnc2cc(Cl)ccc12)CNC1CCCCC1 (stereo unspecified) ... True
10) Nc1ccc(CC[C@H]2CCC/C=C/[C@@H]3C[C@H](O)C[C@H]3[C@H](O)/C=C/C(=O)O2)cc1 ... True
11) CN(C)CCCN1c2ccccc2CCc2ccc(Cl)cc21 ... True
12) CC(C)C1=C(O)C2=C(C(=O)C1=O)[C@@]1(C)CCCC(C)(C)[C@@H]1CC2 ... False
13) Fc1ccc(C(c2ccc(F)cc2)C(Cl)Cl)cc1 ... False
14) COc1ccc(C2CC(c3cccs3)=NN2c2ccc(S(N)(=O)=O)cc2)cc1 (stereo unspecified) ... False
15) CC(=O)Nc1ccc(S(=O)(=O)N/N=C(\C)c2ccc(C)cc2C)cc1 ... False
16) Clc1ccc(C2=NN=C3C(Cc4ccccc4)=Nc4ccccc4N3C2)cc1 ... False
17) CC(=O)/C(=C/c1ccc(Br)cc1)C(=O)c1ccccc1 ... False
18) Nc1nc(-c2cccnc2)nc2c1sc(=S)n2-c1ccccc1 ... False
19) O=C(CI)OCC(COC(=O)CI)OC(=O)CI ... False
20) COc1ccc(/C=C/C(=O)C(=O)/C=C/c2ccc(OC)c(OC)c2)cc1OC ... True
21) COc1ccc(-c2cc(-c3ccc(Cl)cc3)nc(SCCCCCCC(=O)NO)n2)cc1OC ... False
22) CC(=O)[C@@]12O[C@](C)(c3ccccc3)O[C@@H]1CC1C3CCC4=CC(=O)CC[C@]4(C)C3CC[C@@]12C (stereo partly specified) ... False
23) COc1cc2cc(Oc3ccc(NC(=O)Nc4ccc(C(F)(F)F)cc4)cc3)c(C)nc2cc1OC ... False
24) COc1cc2c3c(n([C@H]4CCOC4)c(=O)c2cc1OC)-c1cc2c(cc1C3=O)OCO2 ... True
25) Nc1ccn(Cc2nnc(CCC(=O)c3nc4ccccc4[nH]3)o2)c(=O)n1 ... False
26) Cc1ccc(NCCN(C)CC(C)O)c2c(=O)c3ccccc3sc12 (stereo unspecified) ... True
27) NS(=O)(=O)Oc1ccc(-c2ccc3sccc3c2)cc1 ... False
28) O=C1CC(=O)N(C(=O)c2nn(-c3ccc(Cl)cc3)cc2O)N1 ... False
29) O=C(CSc1nccc(Nc2cccc3ccccc23)n1)c1ccc(Cl)cc1 ... False
30) COc1ccc2nc(-c3ccc(Cl)cc3)cc(-c3nnc(SC/C(=N\O)c4ccccc4)n3-c3ccccc3)c2c1 ... False
31) CCCCCCCCCCCC[n+]1c(C)cc(N)c2ccccc21 ... True
32) N#Cc1c(N)nc(-c2cc(F)cc(C(F)(F)F)c2)nc1-c1ccccc1F ... False
33) CNC(=O)c1cc(Oc2ccc3c(c2)sc2nc(-c4ccc(N)cc4)cn23)ccn1 ... True
34) O=S(=O)(NCCCNc1nccc(-c2cn(-c3ccccc3)nc2-c2ccc(Cl)c(O)c2)n1)c1ccccc1 ... False
35) CC(CN(C)C)Oc1ccccc1NC1=C(Cl)C(=O)C(Nc2ccccc2OC(C)CN(C)C)=C(Cl)C1=O (stereo unspecified) ... True
36) COc1ccccc1/C=N\N/C(N)=N\N=C\c1ccccc1OC ... True
37) COc1ccc2nc3cc(Cl)ccc3c(NCCCNCCO)c2c1 ... True
38) CN1CCN(c2cc3c(cc2F)c(=O)c(C(=O)O)cn3-c2ccc(F)cc2)CC1 ... False
39) O=C(Nc1ccccc1)Nc1ncnc2c1ncn2-c1ccccc1 ... False
40) Nc1cc(Br)c(-c2nn3c(CCC(=O)c4nc5ccccc5[nH]4)nnc3s2)c(Br)c1 ... False

Origin of the recorded values: PubChem BioAssay (NCI)
